Readings of Test result(number of subject) (±) for the listed molecules
- Tested on: human skin
- EXPERIMENTAL_DETAILS: Skin irritation test of active ingredient (patch method, CTFA guidelines)
- Type: in vivo
- ASSAY_CONDITIONS: 0.5 wt %, 20 people, patch 24 hours; (±): slightly reddish than the periphery

MOLECULE | Test result(number of subject) (±)
O=C(O)c1ccc(N(CCN(CCN(c2ccc(C(=O)O)cc2)c2ccc(C(=O)O)cc2)c2ccc(C(=O)O)cc2)CCN(c2ccc(C(=O)O)cc2)c2ccc(C(=O)O)cc2)cc1 [Embodiment 2] | 0
O=C(O)c1ccc(N2CCCN(c3ccc(C(=O)O)o3)CCN(c3ccc(C(=O)O)o3)CCCN(c3ccc(C(=O)O)o3)CC2)o1 [Embodiment 12] | 0
NCCNCCNCCN [Trientine, Triethylenetetramine, reference compound] | 1
O=C(O)c1ccc(N2CCCN(c3ccc(C(=O)O)cc3)CCN(c3ccc(C(=O)O)cc3)CCCN(c3ccc(C(=O)O)cc3)CC2)cc1 [Embodiment 10] | 0
C1CNCCNCCNCCN1 [Cyclen, 1,4,7,10-tetraazacyclododecane] | 0
O=C(O)CN1CCN(CC(=O)O)CCN(CC(=O)O)CCN(CC(=O)O)CC1 [Embodiment 5] | 0
O=C(O)c1cncc(N2CCN(c3cncc(C(=O)O)c3)CCN(c3cncc(C(=O)O)c3)CCN(c3cncc(C(=O)O)c3)CC2)c1 [Embodiment 7] | 0
O=C(O)CN(CCN(CCN(CC(=O)O)CC(=O)O)CC(=O)O)CCN(CC(=O)O)CC(=O)O [Embodiment 1] | 1
O=C(O)c1ccc(N(CCN(CCN(c2ccc(C(=O)O)o2)c2ccc(C(=O)O)o2)c2ccc(C(=O)O)o2)CCN(c2ccc(C(=O)O)o2)c2ccc(C(=O)O)o2)o1 [Embodiment 4] | 0
O=C(O)CN1CCCN(CC(=O)O)CCN(CC(=O)O)CCCN(CC(=O)O)CC1 [Embodiment 9] | 0
O=C(O)c1ccc(N2CCN(c3ccc(C(=O)O)o3)CCN(c3ccc(C(=O)O)o3)CCN(c3ccc(C(=O)O)o3)CC2)o1 [Embodiment 8] | 0
O=C(O)c1ccc(N2CCN(c3ccc(C(=O)O)cc3)CCN(c3ccc(C(=O)O)cc3)CCN(c3ccc(C(=O)O)cc3)CC2)cc1 [Embodiment 6] | 0
O=C(O)c1cncc(N2CCCN(c3cncc(C(=O)O)c3)CCN(c3cncc(C(=O)O)c3)CCCN(c3cncc(C(=O)O)c3)CC2)c1 [Embodiment 11] | 0
